meta.source: patent US20100056497A1

# testTarget: Recombinant human renin (Homo sapiens)
# Sequence (P00797 67-406): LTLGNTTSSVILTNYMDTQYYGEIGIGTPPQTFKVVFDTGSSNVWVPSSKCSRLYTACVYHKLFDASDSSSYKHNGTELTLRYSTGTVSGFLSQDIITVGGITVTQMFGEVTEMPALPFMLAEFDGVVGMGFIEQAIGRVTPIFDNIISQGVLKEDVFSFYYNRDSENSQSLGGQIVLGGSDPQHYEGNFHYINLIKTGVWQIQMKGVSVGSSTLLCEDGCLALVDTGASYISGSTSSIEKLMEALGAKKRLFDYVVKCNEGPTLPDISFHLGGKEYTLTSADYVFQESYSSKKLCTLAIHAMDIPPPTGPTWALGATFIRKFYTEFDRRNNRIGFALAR
# measurementProtocol: In vitro renin inhibitory activity assay (fluorescence, FRET peptide substrate)
# conditionDetails: 37° C., one hour, substrate 4 μM, pH 7.4
# Experimental: In Vitro Renin Inhibitory Activity Assay Recombinant human renin (50 ng) was reacted in 0.1M BEPES buffer (pH 7.4) containing 0.1M NaCl, 1 mM EDTA and 0.1 mg/mL BSA together with a substrate and a test compound at 37° C. for one hour. […] The elevated fluorescence intensity at the exciting wavelength 340 nm and the fluorescence wavelength 500 nm was measured by a fluorescence plate reader. […]
pIC50: −log10 of the molar value. Where a name gives a salt, the structure may show the parent alone.
propertyLabel: pIC50

COCCCOc1cc(C(=O)N(C(C)C)[C@@H]2CCCNC2)c(Cl)cc1OC [Example 53, hydrochloride] :: 6.66
COCCCOc1cc(C(=O)N(C(C)C)[C@H]2CNC[C@@H](CNC(=O)OCc3ccccc3)C2)ccc1OC (racemic) [Example 43, hydrochloride] :: 6.11
COCCCCN1C(=O)C(C)(C)Oc2ccc(C(=O)N(C(C)C)[C@@H]3CCCNC3)cc21 [Example 126, hydrochloride] :: 7.66

[a] COCCCOc1cc(C(=O)N(C(C)C)[C@H]2CNCC[C@@H]2c2ccccc2)ccc1OC (racemic) [Example 45, hydrochloride]
[b] COCCCOc1cc(C(=O)N(C(C)C)[C@@H]2CCCNC2)c(C)cc1OC
Exam item: Could you please tell me which of these two has the higher pIC50: a or b ? Mark your answer with the label of the selected entry.
Marked response: b
